# Lookup of reported composite z-score keyed by entry
# assayNotes: small-molecule microarray binders of probe aShh, primary screen, biochemical, biotinylated probe, 635/667 nm fluorescence (AID 1114);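 also: probe is biotin-labelled aShh protein from a stem cell growth factor screen; measures binding of labelled protein to compounds printed on the slide; score merges feature fluorescence at 667 nm with signal-to-noise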
# details: higher = more signal

compound: Cc1cc(C)c(C(O)C2C=CC3C(=O)NC(=O)C3N2Nc2ccc(Cl)cc2Cl)c(C)c1 (stereo not given)
composite z-score: 0.171

compound: C=C[C@@H](OC)[C@H](OC(=O)Nc1ccc(SC)cc1)c1ccc(O)c(F)c1
composite z-score: -0.0626

compound: C=CCN1C(=O)[C@@]2(O[C@@H](CCn3cc([C@H](O)c4ccccc4)nn3)[C@H]([Si](C)(C)c3ccc(OC)cc3)[C@H]2C)c2cc(N3CCC3=O)ccc21
composite z-score: -0.138

compound: CCOc1cc(C(O)C2C=CC3C(=O)N(c4ccccc4)C(=O)C3N2Nc2ccc(C#N)cc2)ccc1O (stereo not given)
composite z-score: -0.315

compound: O=C1NC(=O)C2C1C=CC(C(O)c1ccco1)N2Nc1ccccn1 (stereo not given)
composite z-score: 0.111

compound: CCCCCCCCCCC(O)C1C=CC2C(=O)N(C)C(=O)C2N1NC(=O)OC(C)(C)C (stereo not given)
composite z-score: 0.445

compound: COC(=O)[C@@]1(Cc2ccccc2N=[N+]=[N-])N=C(c2ccc(OCCCO)cc2)O[C@H]1c1ccccc1N=[N+]=[N-]
composite z-score: -0.064

compound: C=CCC(OC(C)=O)[C@@H]1[C@@H](N(Cc2cccc3ccccc23)C(=O)c2cccc3ccccc23)c2cc(OCCCO)ccc2N1C(=O)c1ccc(-c2ccccc2)cc1 (stereo not given in full)
composite z-score: -0.117

compound: CC(C)C[C@@H]1NC(=O)[C@@H]2C[C@H](C(=O)NCCCCCN)[C@H](c3ccc(O)cc3)N2C1=O
composite z-score: 0.108

compound: CCCCCCCCCCC(O)C1C=CC2C(=O)N(C)C(=O)C2N1Nc1ccc([N+](=O)[O-])cc1[N+](=O)[O-] (stereo not given)
composite z-score: 0.151
